B1: SPSB1 (parent)
chain: DMRDPTYRPLKQELQGLDYCKPTR

variants of: B1; experiment: protein stability index of a GFP-peptide fusion (GPS, HEK-293T) (PSI 1-6); higher = more stable; conditions: c terminus: a fixed tail appended;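 note: lentivirally expressed fusions sorted by FACS into six bins by GFP to DsRed ratio, PSI derived from sequencing read proportions per bin multiplied by bin number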
Everything with protein stability index lower than 3 is -1; everything else, including exactly 3, is 1.

Consider the following illustrative entries.
Prompt: Could you verify whether the entry "C20R" shows protein stability index of no less than 3?
Completion: 1

Prompt: Test whether the variant "P22C" records protein stability index of 3 or higher.
Completion: 1

Prompt: API: above_or_equal(metric=protein stability index, cutoff=3) for item "T6S"
Completion: 1

Prompt: Hi team, for "C20I" , is the recorded protein stability index at or above 3?
Completion: -1

Prompt: Tell me whether protein stability index is at least 3 here: "K21L"
Completion: 1

Others:
Prompt: Decide: protein stability index of "M2A" >= 3?
Completion: 1
